Data origin, for the record: patent US20240084017A1

biological target: human Mac-1 (integrin αMβ2, CD11b/CD18) (human, UniProt P11215 17-1152; P05107 23-769); assay: flow cytometry, HEK293/Mac-1 cells (clone 1-4), PBS/MnCl2 (Mn2+)
As shown below, each of these binders has a reported Mn^2+ MFI value.
Kindly answer with a numeric value in MFI, unit omitted.

These recorded examples may help you get a feel for the data.
Would you kindly share the measured Mn^2+ MFI for anti-Mac-1 antibody clone 25A04 (antibody, human IgG4, V domains shown) VH: EVQLVESGGGLVQPGGSLRLSCAASGFTFSFTAMHWVRQAPGKGLEWVSAIIYNGSEADYADSVKGRFTISRDNSKNTLYLQMNSLRAEDTAVYYCARANDYDHGCCDNYAMDYWGQGTLVTVSS VL: DIQMTQSPSSLSASVGDRVTITCRASQGIGSYLYWYQQKPGKAPKLLIYDASNLQSGVPSRFSGSGSGTDFTLTISSLQPEDFATYYCMQHGGWPLTFGQGTKVEIK ? 65800

Using the record for anti-Mac-1 antibody clone m2396 (antibody, human IgG4, V domains shown) VH: QVQLQESGPGLVKPSETLSLTCTVSGFSLTSNSISWVRQPPGKGLEWMGAIWSGGGTDYNPSLKSRLTISRDTSKSQVFLKMSSLTAADTAIYFCTRGGYPYYFDYWGQGVLVTVSS VL: DIVMTQSPDSLAVSLGERVTINCKSSQSLLYSENQENYLAWYQQKPGQSPKLLIYWASTRQSGVPDRFSGSGSGTDFTLTISSVQAEDLAIYYCQQYYDTPLTFGGGTKLEIK , report its Mn^2+ MFI. 107000

Given the entry anti-Mac-1 antibody clone 27D06 (antibody, human IgG4, V domains shown) VH: QVKLQESGAEVVKPGASVKISCKASGYSFTDYNMNWVKQSNGKSLEWIGVINPNYGTTSYNQKFKGKATLTVDQSSSTAYMQLNSLTSEDSAVYYCARTYDYDGDAFAYWGQGTTVTVSS VL: DIELTQSPALMSASPGEKVTMTCRASSSVSSNNLHWYQQKSGASPKLWIYSTSNLATGAPARFSGSGSGTSYSLTISSMEAEDAATYYCQQWNSNPPTFGGGTKLEIK , report its measured Mn^2+ MFI. 16600

As a next step, examine the binder that follows.
Need Mn^2+ MFI, item anti-Mac-1 antibody clone 28A12 (antibody, human IgG4, V domains shown) VH: QVKLQESGPELVKPGASVKISCKASGYSFTDYNMNWVKQSNGKSLEWIGEINPGYGTSRYNQKFKDKATLTVDQSSSTAYMQLNSLTSEDSAVYYCARADVDYGDTMDYWGQGTTVTVSS VL: DIELTQSPAIMSASPGEKVTMTCSASSSVSDMHWYQQKSGNSPKRWIYDTSKLASGVPVRFSGSGSGTSYSLTISSMEAEDAATYYCQQWSSNPPTFGAGTKLELK 37300
